Record form. Attribute: EC50, ELK-luciferase assay. Fill in for each entry.
- tgt: beta-klotho
- protocol_summary: cell-based or functional assay
I only need the number, in nM, no unit after it.

IN: Supply reported EC50, ELK-luciferase assay belonging to this binder: PEGylated FGF21 mutant E37C (ligand, 20 kDa methoxy-PEG-maleimide on Cys 37) MHPIPDSSPLLQFGGQVRQRYLYTDDAQQTEAHLEIRCDGTVGGAADQSPESLLQLKALKPGVIQILGVKTSRFLCQRPDGALYGSLHFDPEACSFRELLLEDGYNVYQSEAHGLPLHLPGNKSPHRDPAPRGPARFLPLPGLPPAPPEPPGILAPQPPDVGSSDPLSMVGPSQGRSPSYAS
OUT: 6.9

IN: Supply reported EC50, ELK-luciferase assay belonging to this binder: PEGylated FGF21 mutant R77C (ligand, 20 kDa methoxy-PEG-maleimide on Cys 77) MHPIPDSSPLLQFGGQVRQRYLYTDDAQQTEAHLEIREDGTVGGAADQSPESLLQLKALKPGVIQILGVKTSRFLCQCPDGALYGSLHFDPEACSFRELLLEDGYNVYQSEAHGLPLHLPGNKSPHRDPAPRGPARFLPLPGLPPAPPEPPGILAPQPPDVGSSDPLSMVGPSQGRSPSYAS
OUT: 4.9
